I'd appreciate it if you could supply pIC50 values for the items below.
# Assay Target: TBK1 (Homo sapiens, UniProt Q9UHD2)
# Sequence (Q9UHD2 whole entry, species assumed): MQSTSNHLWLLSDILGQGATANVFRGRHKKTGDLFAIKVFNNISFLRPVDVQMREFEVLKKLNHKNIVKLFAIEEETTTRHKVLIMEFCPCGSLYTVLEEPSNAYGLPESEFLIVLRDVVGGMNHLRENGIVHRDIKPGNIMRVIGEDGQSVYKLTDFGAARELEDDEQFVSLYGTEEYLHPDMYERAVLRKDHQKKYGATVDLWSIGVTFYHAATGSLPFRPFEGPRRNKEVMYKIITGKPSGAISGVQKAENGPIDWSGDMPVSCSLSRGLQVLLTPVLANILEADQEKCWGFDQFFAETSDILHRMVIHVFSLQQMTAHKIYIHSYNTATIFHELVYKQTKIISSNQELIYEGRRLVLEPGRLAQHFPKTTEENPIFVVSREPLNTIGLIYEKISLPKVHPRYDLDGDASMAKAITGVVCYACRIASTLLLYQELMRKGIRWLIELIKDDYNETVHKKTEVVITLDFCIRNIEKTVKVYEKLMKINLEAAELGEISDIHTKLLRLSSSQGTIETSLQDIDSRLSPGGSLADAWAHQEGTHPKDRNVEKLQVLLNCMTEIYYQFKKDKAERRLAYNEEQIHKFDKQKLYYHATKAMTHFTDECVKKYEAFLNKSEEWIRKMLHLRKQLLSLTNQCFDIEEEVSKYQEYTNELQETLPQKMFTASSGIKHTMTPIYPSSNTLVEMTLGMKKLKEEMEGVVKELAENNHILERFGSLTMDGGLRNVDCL
# Test Summary: TBK biochemical assay
# Test Context: 10 point 1:4 dose response, 30 uM top concentration, 90 min at 25° C., LabChip EZ Reader II; read-out: TBK1_IC50
pIC50: −log10 of the molar value. Structures can show the parent of a compound that is named as a salt.

Would you mind telling me what pIC50 value was observed for COc1nc(Nc2nccc(-c3ccc(OC4CCN(C(=O)c5cnco5)CC4)c(C#N)c3)n2)ccc1N1CCN(C)CC1 [Example 92] ?
> 7.00

GET /values?readout=pIC50&item= COc1nc(Nc2nccc(-c3ccc(OC4CCN(C(=O)[C@@H](C)O)CC4(F)F)c(C#N)c3)n2)ccc1N1CCN(C2COC2)[C@@H](C)C1 (some centres unmarked) [Example 125]
> 7.00

What value of pIC50 has been recorded for this entry: N#Cc1cc(-c2ccnc(Nc3cccc(C4CCN(C5COC5)CC4)c3)n2)ccc1OC1CCNCC1(F)F (centres unmarked) [Example 222]
> 7.00

Field request: pIC50 | item: COc1nc(Nc2nccc(-c3ccc(N4CCC5(CC4)CNC5)c(C#N)c3)n2)ccc1N1CCN(C2COC2)CC1 [Example 313]
> 7.00

Can you share its pIC50? I mean this compound: COc1nc(C(=O)N(C)C)ccc1Nc1nccc(-c2ccc(NC3CCOCC3)c(C#N)c2)n1 [Example 62]
> 7.00

Any idea what its pIC50 is? The compound is COc1nc(Nc2nccc(-c3ccc(OC4CCN(C(=O)c5cocn5)CC4)c(C#N)c3)n2)ccc1C(=O)N(C)C [Example 77]
> 7.00

# pIC50 lookup, item COc1nc(Nc2nccc(-c3ccc(OC4CN(C)C4)c(C#N)c3)n2)ccc1C(=O)N(C)C [Example 69]
6.00 to 7.00

So what does the record say about pIC50 for COc1cc(Nc2nccc(-c3cc(C#N)c(OC4CCOCC4)cn3)n2)cnc1N1CCN(C)CC1 [Example 56] ?
6.00 to 7.00

Reported pIC50, compound COc1nc(Nc2nccc(-c3ccc(OC4CCN(C)CC4)c(C#N)c3)n2)ccc1C(=O)N(C)C [Example 71, hydrochloride] : ____
6.00 to 7.00

Which pIC50 is listed for COc1nc(Nc2nccc(-c3ccc(OC4CCOCC4)c(C#N)c3)n2)ccc1C1CCN(C)C1 (centres unmarked) [Example 42] ?
> 7.00

# pIC50 lookup, item C[C@@H](O)C(=O)N1CCC(Oc2ccc(-c3ccnc(Nc4ccc(C5CCN(C)CC5)cc4)n3)cc2C#N)C(F)(F)C1 (some centres unmarked) [Example 145]
> 7.00

Recorded pIC50 of COc1nc(Nc2nccc(-c3ccc(O[C@@H]4CCN(C(=O)[C@H](C)O)C[C@@H]4F)c(C#N)c3)n2)ccc1N1CCN(C2COC2)CC1 [Example 118] , please.
> 7.00

Param item = COc1nc(Nc2nccc(-c3ccc(OC4CCOCC4)c(C#N)c3)n2)ccc1N(C)CC(=O)N(C)C [Example 35, hydrochloride] ; retrieve measured pIC50.
> 7.00

# query: pIC50 of entry COc1nc(Nc2nccc(-c3ccc(OC4CCOCC4)c(C#N)c3)n2)ccc1N1CCN(CCO)CC1 [Example 167]
> 7.00

###

# Assay Target: IKKε (Homo sapiens)
# Sequence (Q14164 whole entry, species assumed): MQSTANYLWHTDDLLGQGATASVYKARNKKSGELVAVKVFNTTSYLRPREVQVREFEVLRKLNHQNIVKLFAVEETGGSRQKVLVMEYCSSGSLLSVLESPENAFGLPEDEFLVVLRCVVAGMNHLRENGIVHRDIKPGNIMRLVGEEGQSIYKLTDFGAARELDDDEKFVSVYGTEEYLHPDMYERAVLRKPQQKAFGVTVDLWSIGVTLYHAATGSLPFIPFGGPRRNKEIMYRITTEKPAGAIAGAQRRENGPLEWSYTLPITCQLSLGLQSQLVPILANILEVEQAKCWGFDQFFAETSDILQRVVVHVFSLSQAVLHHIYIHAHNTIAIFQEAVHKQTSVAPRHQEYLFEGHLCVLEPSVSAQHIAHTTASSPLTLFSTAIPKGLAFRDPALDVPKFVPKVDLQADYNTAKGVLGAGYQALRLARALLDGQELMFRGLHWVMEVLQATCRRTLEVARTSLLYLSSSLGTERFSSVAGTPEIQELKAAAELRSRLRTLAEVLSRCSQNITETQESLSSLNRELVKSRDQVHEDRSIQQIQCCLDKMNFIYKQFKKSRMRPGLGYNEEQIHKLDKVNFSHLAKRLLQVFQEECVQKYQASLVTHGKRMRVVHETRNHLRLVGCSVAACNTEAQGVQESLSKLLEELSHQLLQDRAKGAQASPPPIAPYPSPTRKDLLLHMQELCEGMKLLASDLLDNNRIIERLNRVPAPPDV
# Test Summary: IKKε biochemical assay
# Test Context: 10 point 1:4 dose response, 30 uM top concentration, 90 min at 25° C., LabChip EZ Reader II; read-out: IKKε_IC50
Measurement Name: IC50

I'd like to know its IC50. The compound in question is C[C@@H](O)C(=O)N1CCC(Oc2ccc(-c3ccnc(Nc4ccccn4)n3)cc2C#N)C(F)(F)C1 (stereo partly drawn) [Example 221]
100 to 1000 nM

Fill blank: measured IC50 of the compound CN(C)C(=O)c1ccc(Nc2nccc(-c3ccc(OC4CCOCC4)c(C#N)c3)n2)nc1 [Example 22] is ____.
100 to 1000 nM

Please look up its IC50: COc1nc(Nc2nccc(-c3ccc(OC4CCOCC4)c(C#N)c3)n2)ccc1C(=O)N1CCNC(=O)C1 [Example 6]
< 100 nM

I would be grateful if you could share the reported IC50 for COc1nc(Nc2nccc(-c3ccc(OC4CCOCC4)c(C#N)n3)n2)ccc1C1CCN(C)CC1 [Example 46] .
< 100 nM

# lookup: IC50 of COc1nc(Nc2nccc(-c3ccc(OC4CCN(C(=O)[C@@H](C)O)CC4(F)F)c(C#N)c3)n2)ccc1C(=O)N(C)C (stereo partly drawn) [Example 325]
< 100 nM

For COc1nc(Nc2nccc(-c3ccc(OC4CCN(C(=O)[C@H](C)CO)CC4(F)F)c(C#N)c3)n2)ccc1N1CCN(C2COC2)CC1 (stereo partly drawn) [Example 257] , what is its reported IC50?
< 100 nM

Which value of IC50 has been reported for COc1nc(Nc2nccc(-c3ccc(OC4CCOCC4)c(C#N)c3)n2)ccc1C(=O)N1CC2CCC(C1)O2 [Example 10] in the records?
< 100 nM

Any idea what its IC50 is? The compound is COc1nc(Nc2nccc(-c3ccc(OC4CCOCC4)c(C#N)c3)n2)ccc1C(=O)N1CC2COCC2C1 (stereo not drawn) [Example 12]
< 100 nM

Requested field: IC50. Item: CC(O)C(=O)N1CCC(Oc2ccc(-c3ccnc(Nc4ccc(C5CCN(C)CC5)cc4)n3)cc2C#N)C(F)(F)C1 (stereo not drawn) [Example 149]
< 100 nM

Given the entry N#Cc1cc(-c2ccnc(Nc3ccc(C4CCN(C5COC5)CC4)cc3)n2)ccc1OC1CCOCC1 [Example 151] , report its measured IC50.
< 100 nM

Which IC50 is listed for COc1nc(Nc2ncc(C)c(-c3ccc(OC4CCN(C(=O)[C@@H](C)O)CC4(F)F)c(C#N)c3)n2)ccc1N1CCN(C2COC2)CC1 (stereo partly drawn) [Example 286] ?
100 to 1000 nM

Can you share its IC50? I mean this compound: CN1CCC(c2ccc(Nc3nccc(-c4ccc(OC5CCN(C(=O)CO)CC5(F)F)c(C#N)c4)n3)cc2)CC1 (stereo not drawn) [Example 148]
< 100 nM

Look up IC50 for this compound: COc1cc(C(=O)N(C)C)ncc1Nc1nccc(-c2ccc(NC3CCOCC3)c(C#N)c2)n1 [Example 61]
100 to 1000 nM

Request the reported IC50 associated with COc1nc(Nc2nccc(-c3ccc(OC4CCNCC4)c(C#N)c3)n2)ccc1C(=O)N(C)C [Example 72]
< 100 nM

Query (compound): C[C@H](O)C(=O)N1CCC(Oc2ccc(-c3ccnc(Nc4ccncc4)n3)cc2C#N)C(F)(F)C1 (stereo partly drawn) [Example 207] ; field requested: IC50
< 100 nM

Value lookup for IC50; key = COc1nc(Nc2nccc(-c3ccc(OC4CCN(C(=O)C(C)F)CC4(F)F)c(C#N)c3)n2)ccc1N1CCN(C2COC2)CC1 (stereo not drawn) [Example 259]
< 100 nM

// returns reported IC50 for input COc1nc(Nc2ncc(C)c(-c3ccc(O[C@@H]4CCN(C(=O)[C@H](C)O)CC4(F)F)c(C#N)c3)n2)ccc1N1CCN(C2COC2)CC1 [Example 285]
100 to 1000 nM

Reported IC50, compound C[C@@H](O)C(=O)N1CCC(Oc2ccc(-c3ccnc(Nc4ccc(N5CCOCC5)cc4)n3)cc2C#N)C(F)(F)C1 (stereo partly drawn) [Example 215] : ____
< 100 nM

Would you mind telling me what IC50 value was observed for Cc1nc(C(=O)N2CCC(Oc3ccc(-c4ccnc(Nc5ccc(N6CCN(C)CC6)cc5)n4)cc3C#N)CC2)n[nH]1 [Example 203] ?
< 100 nM

# query: IC50 of entry COc1nc(Nc2nccc(-c3ccc(O[C@@H]4CCN(C(=O)[C@H](C)O)CC4(F)F)c(C#N)c3)n2)ccc1N1CCN(C2COC2)[C@@H](C)C1 [Example 248]
< 100 nM

Endpoint output: IC50 of COc1nc(Nc2ncc(F)c(-c3ccc(O[C@H]4CCN(C(=O)[C@H](C)O)CC4(F)F)c(C#N)c3)n2)ccc1N1CCN(C2COC2)CC1 [Example 288] . Value?
< 100 nM

Give the measured IC50 of C[C@H](O)C(=O)N1CCC(Oc2ccc(-c3ccnc(Nc4ccc(N5CCN(C6COC6)CC5)cn4)n3)cc2C#N)C(F)(F)C1 (stereo partly drawn) [Example 245] .
< 100 nM

# IC50 lookup, item C[C@H](O)C(=O)N1CCC(Oc2ccc(-c3ccnc(Nc4ccc(N5CCN(C6COC6)CC5)cc4)n3)cc2C#N)C(F)(F)C1 (stereo partly drawn) [Example 138]
< 100 nM

State the recorded IC50 for this entry: COc1nc(Nc2nccc(-c3ccc(OC4CCN(C(=O)c5cocn5)CC4)c(C#N)c3)n2)ccc1C(=O)N(C)C [Example 77]
< 100 nM

Need IC50, item N#Cc1cc(-c2ccnc(Nc3ccc(N4CCN(C5COC5)CC4)cc3)n2)ccc1OC1CNC1 [Example 171]
< 100 nM

Requested field: IC50. Item: C[C@H](O)C(=O)N1CC[C@@H](Oc2ccc(-c3ccnc(Nc4ccc(N5CCN(C6COC6)CC5)cc4)n3)cc2C#N)C(F)(F)C1 [Example 140]
< 100 nM

IC50 for COc1nc(Nc2nccc(-c3ccc(O[C@H]4CCN(C(=O)[C@H](C)O)C[C@@H]4F)c(C#N)c3)n2)ccc1N1CCN(C2COC2)CC1 [Example 196] ?
< 100 nM
